Provenance of the data: PubChem BioAssay

Assay: VP16 transactivation reporter inhibitors, counter-screen for LRH-1 inverse agonist project, cell-based, luminescence, high throughput (AID 651615)
Particulars: Gal4-VP16 luciferase reporter cells, at 3.6 µM, hits give high values
Exercise: for every item that follows, state its recorded inhibition.
Answers are plain numbers, in %.

Illustrative cases are given below, each with its answer.
CCOc1ccc(C(=O)c2cc([N+](=O)[O-])ccc2Cl)cc1 : -1.79
CC1(C)CC(=O)C=C(c2ccc3c(c2)OCO3)C1 : 2.47
CC1=C(CO)C(=O)OC([C@@H](C)C2CC[C@H]3C4C[C@H]5O[C@]56[C@@H](O)C=CC(=O)[C@]6(C)C4CC[C@]23C)C1 (stereo partly specified) : 79.6

# batch size: 7; output inhibition per entry
1. COC1C=CC=C(C)C(=O)NC2=CC(=O)C(N)=C(CC(C)CC(OC)C(O)C(C)C=C(C)C1OC(N)=O)C2=O (stereo unspecified)
2. Cc1cccnc1NC(=O)c1ccc([N+](=O)[O-])o1
3. O=S(=O)(NCC1CCCO1)c1ccc(-c2ccc(S(=O)(=O)NCC3CCCO3)cc2)cc1 (stereo unspecified)
4. O=c1cc(C2CCCCC2)[nH]c(=O)[nH]1
5. C=CS(=O)(=O)N(Cc1ccc(Cl)c(Cl)c1)C[C@@H](O)CO
6. CC1(C)CC2CC(C)(CN2S(=O)(=O)c2ccc(C(=O)Nc3ccc(S(=O)(=O)N4CCOCC4)cc3)cc2)C1 (stereo unspecified)
7. OCC1OC(n2cnc3c(NCc4ccccc4O)ncnc32)C(O)C1O (stereo unspecified)

Reply:
85.7
1.88
56.7
2.19
28.3
57.8
86.1
